- tested.on: Squalene monooxygenase (Sus scrofa)
- procedure.details: Compound was evaluated for the inhibition of pig liver microsomal squalene epoxidase.
quantity.measured: IC50 (nM)
Kindly answer with a numeric value in nM, unit omitted.

For the compound CCN(C/C=C/C#CC(C)(C)C)Cc1cccc(NC[Si](C)(C)c2ccccc2C)c1 , what IC50 is on record?
100
